These measurements were taken from ChEMBL document CHEMBL1125178.

The compounds below have reported IC50 for Kappa-type opioid receptor (Cavia porcellus).
Attribute Measured: IC50 (µM)

- Compound String: "C[C@H]1[C@H]2Cc3ccc(O)cc3[C@@]1(C)CCN2C[C@H]1CCCO1"
  Observed: 0.07
- Compound String: "CC[C@H]1[C@H]2Cc3ccc(O)cc3[C@@]1(CC)CCN2Cc1ccoc1"
  Observed: 0.0016
- Compound String: "C[C@H]1[C@H]2Cc3ccc(O)cc3[C@@]1(C)CCN2C[C@H]1CCC(=O)O1"
  Observed: 0.4
- Compound String: "C[C@H]1[C@H]2Cc3ccc(O)cc3[C@@]1(C)CCN2C[C@@H]1C=CC(=O)O1"
  Observed: 0.0054
- Compound String: "C=C1C[C@@H](CN2CC[C@]3(C)c4cc(O)ccc4C[C@@H]2[C@@H]3C)OC1=O"
  Observed: 0.4

====

- Protocol Text: Displacement of [3H]bremazocine from opioid receptor of guinea pig membrane
- Set-up: species or system Cavia porcellus
Lab note: compare IC50 with 0.02 µM, writing t if less and f if equal or more.

- Compound String: "C[C@H]1[C@H]2Cc3ccc(O)cc3[C@@]1(C)CCN2C[C@@H]1CCC(=O)O1"
  Assigned Class: "t"
- Compound String: "C=C1C[C@H](CN2CC[C@]3(C)c4cc(O)ccc4C[C@@H]2[C@@H]3C)OC1=O"
  Assigned Class: "f"
- Compound String: "C=C1C[C@@H](CN2CC[C@]3(C)c4cc(O)ccc4C[C@@H]2[C@@H]3C)OC1=O"
  Assigned Class: "f"
- Compound String: "C[C@H]1[C@H]2Cc3ccc(O)cc3[C@]1(C)CCN2Cc1ccco1"
  Assigned Class: "t"
- Compound String: "CC[C@@H]1[C@@H]2Cc3ccc(O)cc3[C@]1(CC)CCN2Cc1ccoc1"
  Assigned Class: "f"
- Compound String: "C=CCN1CC[C@]23c4c5ccc(O)c4O[C@H]2C(=O)CC[C@@]3(O)[C@H]1C5"
  Assigned Class: "f"
- Compound String: "CC[C@H]1[C@H]2Cc3ccc(O)cc3[C@@]1(CC)CCN2Cc1ccoc1"
  Assigned Class: "t"
- Compound String: "C[C@H]1[C@H]2Cc3ccc(O)cc3[C@@]1(C)CCN2C[C@@H]1CCCO1"
  Assigned Class: "t"
- Compound String: "C[C@H]1[C@H]2Cc3ccc(O)cc3[C@@]1(C)CCN2C[C@H]1C=CC(=O)O1"
  Assigned Class: "f"

====

pIC50: −log10 of the molar value.
The compounds below have reported pIC50 for Kappa-type opioid receptor (Cavia porcellus, UniProt P41144).

- Compound String: "C[C@H]1[C@H]2Cc3ccc(O)cc3[C@]1(C)CCN2Cc1ccco1"
  pIC50: 8.24
- Compound String: "C[C@H]1[C@H]2Cc3ccc(O)cc3[C@@]1(C)CCN2C[C@H]1C=CC(=O)O1"
  pIC50: 7.13
- Compound String: "C[C@H]1[C@H]2Cc3ccc(O)cc3[C@@]1(C)CCN2C[C@@H]1CCC(=O)O1"
  pIC50: 8.14
- Compound String: "C[C@H]1[C@H]2Cc3ccc(O)cc3[C@@]1(C)CCN2C[C@@H]1CCCO1"
  pIC50: 8.77

====

Documented pIC50 across a set of molecules
- Protocol Text: Displacement of [3H]bremazocine from opioid receptor of guinea pig membrane
- Design: species or system Cavia porcellus
pIC50: −log10 of the molar value.

- Molecule: "C[C@H]1[C@H]2Cc3ccc(O)cc3[C@@]1(C)CCN2C[C@H]1CCCO1"
  pIC50: 7.08
- Molecule: "O=C1CC[C@@]2(O)[C@H]3Cc4ccc(O)c5c4[C@@]2(CCN3CC2CC2)[C@H]1O5 [NALTREXONE]"
  pIC50: 8.24
- Molecule: "C[C@H]1[C@H]2Cc3ccc(O)cc3[C@@]1(C)CCN2C[C@@H]1C=CC(=O)O1"
  pIC50: 8.13
- Molecule: "C[C@H]1[C@H]2Cc3ccc(O)cc3[C@@]1(C)CCN2C[C@H]1CCC(=O)O1"
  pIC50: 6.21
- Molecule: "C=C1C[C@H](CN2CC[C@@]3(C)c4cc(O)ccc4C[C@H]2[C@H]3C)OC1=O"
  pIC50: 5.74
